Documented pEC50 across a set of compounds
molecular target: Bcl-2-related protein A1 (Homo sapiens, UniProt Q16548); test: inhibitors of Bim binding to Bfl-1, dose response, biochemical, multiplexed, bead-based flow cytometry (AID 1320); conditions: pH 7.4; 4 °C
Sequence (Q16548 whole entry): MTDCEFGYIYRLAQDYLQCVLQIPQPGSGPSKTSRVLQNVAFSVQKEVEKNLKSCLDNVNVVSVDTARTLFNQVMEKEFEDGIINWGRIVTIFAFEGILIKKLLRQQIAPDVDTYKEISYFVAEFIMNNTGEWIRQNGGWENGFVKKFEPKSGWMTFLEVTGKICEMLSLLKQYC
Hey, just a heads up that pEC50 is the negative log base 10 of the concentration in molar.

Worked examples follow.
In [3]: df
Out[3]:
                                   compound  numeric_result
0  Cc1ccc(-c2cc(-c3ccc(F)cc3)nc(N)c2C#N)o1 [MLS000082831]            5.61
1  c1coc(C2=Nc3cccc4cccc(c34)N2)c1 [2-(2-furanyl)-1H-perimidine]            5.20
2  Cc1ccc(/C=C/C(=O)Nc2ccc([N+](=O)[O-])c(NC(=O)/C=C/c3ccc(C)o3)c2)o1 [MLS000578867]            6.08

Request: Dear colleague, I am looking for the recorded pEC50 of the following compound: Cc1ccc(-c2nc(N3CCOCC3)s[n+]2-c2ccccc2)cc1 [SMR000225370]
Response: 7.70

Request: Repeat for the following compound: COc1cc(/N=c2/ssnc2Cl)c(OC)cc1Cl [SMR000130043]
Response: 5.19

Request: Repeat for the following compound: CC(=O)OCCNc1cc(Sc2nc3ccccc3[nH]2)c2nonc2c1[N+](=O)[O-]
Response: 5.25

Request: Repeat for the following compound: O=C(/C=C/c1ccccc1Cl)c1ccccc(=O)c1O
Response: 5.05

Request: Repeat for the following compound: O=C1/C(=C\c2ccc(-c3ccccc3Cl)o2)SC(=S)N1CC1CCCO1 (stereo unspecified)
Response: 5.59

Source: BindingDB's records for doi:10.7270/Q2CN728N
